Test system: PC-3 [JPC-3]
Test: relative viability (nuclei count vs DMSO), 5 days (fraction); higher = more cells survive
Conditions: first compound 0.08 µM
property_label: relative viability
# print the numeric value only

Some molecules with recorded relative viability:
{"molecule": "COc1nc(C)cnc1NS(=O)(=O)c1cccnc1-c1ccc(-c2nnco2)cc1 [Zibotentan] + Nc1nc2[nH]cc(CCc3ccc(C(=O)N[C@@H](CCC(=O)O)C(=O)O)cc3)c2c(=O)[nH]1 [Pemetrexed] (partner 0.2 µM)", "relative viability": 1.51}
{"molecule": "COc1nc(C)cnc1NS(=O)(=O)c1cccnc1-c1ccc(-c2nnco2)cc1 [Zibotentan] + CC(=O)c1c(C)c2cnc(Nc3ccc(N4CCNCC4)cn3)nc2n(C2CCCC2)c1=O [Palbociclib] (partner 0.5 µM)", "relative viability": 0.556}
{"molecule": "COc1nc(C)cnc1NS(=O)(=O)c1cccnc1-c1ccc(-c2nnco2)cc1 [Zibotentan] + N=C(N)NC(=N)NCCc1ccccc1 [Phenformin] (partner 250 µM)", "relative viability": 0.459}
{"molecule": "COc1nc(C)cnc1NS(=O)(=O)c1cccnc1-c1ccc(-c2nnco2)cc1 [Zibotentan] + CC(=O)Nc1cccc(-n2c(=O)n(C3CC3)c(=O)c3c(Nc4ccc(I)cc4F)n(C)c(=O)c(C)c32)c1 [Trametinib] (partner 0.02 µM)", "relative viability": 0.628}
{"molecule": "COc1nc(C)cnc1NS(=O)(=O)c1cccnc1-c1ccc(-c2nnco2)cc1 [Zibotentan] + Cc1nc(Nc2ncc(C(=O)Nc3c(C)cccc3Cl)s2)cc(N2CCN(CCO)CC2)n1 [Dasatinib] (partner 0.075 µM)", "relative viability": 0.989}

[in] Requested read-out: relative viability. Entry: COc1nc(C)cnc1NS(=O)(=O)c1cccnc1-c1ccc(-c2nnco2)cc1 [Zibotentan] + CCNC(=O)c1noc(-c2cc(C(C)C)c(O)cc2O)c1-c1ccc(CN2CCOCC2)cc1 [Luminespib] (partner 0.01 µM)
[out] 0.692

[in] Now this one: O=c1cc(-c2cccc3c2Sc2ccccc2S3)oc(N2CCOCC2)c1 + Cc1nc(NC(=O)N2CCC[C@H]2C(N)=O)sc1-c1ccnc(C(C)(C)C(F)(F)F)c1 [Alpelisib] (partner 2 µM)
[out] 0.994

[in] Here is the next molecule: COc1nc(C)cnc1NS(=O)(=O)c1cccnc1-c1ccc(-c2nnco2)cc1 [Zibotentan] + NC(=O)Nc1cc(-c2cccc(F)c2)sc1C(=O)N[C@H]1CCCNC1 [AZD7762] (partner 0.2 µM)
[out] 0.711

[in] Another molecule to look at: O=c1cc(-c2cccc3c2Sc2ccccc2S3)oc(N2CCOCC2)c1 + CCNC(=O)c1noc(-c2cc(C(C)C)c(O)cc2O)c1-c1ccc(CN2CCOCC2)cc1 [Luminespib] (partner 0.01 µM)
[out] 0.685

[in] Same again, this time with COc1nc(C)cnc1NS(=O)(=O)c1cccnc1-c1ccc(-c2nnco2)cc1 [Zibotentan] + CS(=O)(=O)N1CCN(Cc2cc3nc(-c4cccc5[nH]ncc45)nc(N4CCOCC4)c3s2)CC1 [Pictilisib] (partner 1 µM)
[out] 0.756

[in] // same read-out, input: O=c1cc(-c2cccc3c2Sc2ccccc2S3)oc(N2CCOCC2)c1 + CC(C)C[C@H](NC(=O)[C@H](Cc1ccccc1)NC(=O)c1cnccn1)B(O)O [Bortezomib] (partner 0.002 µM)
[out] 0.875
